# SYSTEM: Human recombinant PTP1B (Homo sapiens)
# Construct: made in house
# ASSAY_OVERVIEW: Inhibition of tri-phosphorylated insulin receptor dodecaphosphopeptide dephosphorylation by hPTP1B (malachite green)
# Assay type: biochemical
# EXPERIMENTAL_CONDITIONS: recombinant PTP1B, dodecaphosphopeptide substrate
pIC50: recorded values
Remember the convention: pIC50 equals -log10 of concentration in molar.

A selection of reference data follows.
COMPOUND: COc1ccc(-c2cc(-c3ccc(-c4c(Cc5ccccc5)sc5ccccc45)cc3)ccc2O[C@H](Cc2ccccc2)C(=O)O)cc1 [Example 38]
SYSTEM: Human recombinant PTP1B (Homo sapiens)
pIC50: 7.28
//
COMPOUND: O=C(O)[C@@H](Cc1ccccc1)Oc1ccc(-c2ccc(-c3ccsc3Cc3ccccc3)cc2)cc1 [Example 29]
SYSTEM: Human recombinant PTP1B (Homo sapiens)
pIC50: 6.01
//
COMPOUND: CCCCc1oc2ccccc2c1-c1ccc(-c2ccc(O)cc2)cc1 [Example 8]
SYSTEM: Human recombinant PTP1B (Homo sapiens)
pIC50: 6.13
//
COMPOUND: O=C(O)[C@@H](Cc1ccccc1)Oc1ccc(-c2ccc(-c3c(Cc4ccccc4)sc4ccccc34)cc2)cc1Br [Example 36]
SYSTEM: Human recombinant PTP1B (Homo sapiens)
pIC50: 7.24
//
COMPOUND: COc1ccc(-c2cc(-c3ccc(-c4c(Cc5ccccc5)sc5ccccc45)cc3)ccc2OCC(=O)O)cc1OC [Example 60]
SYSTEM: Human recombinant PTP1B (Homo sapiens)
pIC50: 7.15
//
COMPOUND: CC(C)C[C@@H](Oc1c(Br)cc(-c2ccc(-c3c(Cc4ccccc4)oc4ccccc34)cc2)cc1Br)C(=O)O [Example 51]
SYSTEM: Human recombinant PTP1B (Homo sapiens)
pIC50: 7.27

Switching to the query record.
Exercise: Please look up its pIC50: O=C(O)C(Cc1ccccc1)Oc1ccc(-c2ccc(-c3c(Cc4ccccc4)oc4ccccc34)cc2)cc1 (stereo not shown) [Example 11]
Solution: 6.57

====

# SYSTEM: Human recombinant PTP1B (Homo sapiens, UniProt P18031)
# Construct: made in house
# Sequence (P18031 1-435): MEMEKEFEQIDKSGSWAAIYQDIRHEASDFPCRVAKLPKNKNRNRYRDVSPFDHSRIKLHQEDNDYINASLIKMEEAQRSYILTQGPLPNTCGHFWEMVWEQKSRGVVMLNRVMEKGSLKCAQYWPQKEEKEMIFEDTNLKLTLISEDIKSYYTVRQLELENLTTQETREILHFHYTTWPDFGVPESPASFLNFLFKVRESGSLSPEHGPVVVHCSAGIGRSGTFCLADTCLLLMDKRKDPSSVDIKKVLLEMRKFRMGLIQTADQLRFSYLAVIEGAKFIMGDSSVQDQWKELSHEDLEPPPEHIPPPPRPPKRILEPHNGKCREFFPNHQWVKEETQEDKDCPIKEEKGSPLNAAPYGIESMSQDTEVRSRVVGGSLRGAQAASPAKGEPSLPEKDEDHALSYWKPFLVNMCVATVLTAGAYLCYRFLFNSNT
# ASSAY_OVERVIEW: Inhibition of tri-phosphorylated insulin receptor dodecaphosphopeptide dephosphorylation by hPTP1B (malachite green)
# Assay type: biochemical
# EXPERIMENTAL_CONDITIONS: recombinant PTP1B, dodecaphosphopeptide substrate
IC50: recorded values
I only need the number, in nM, no unit after it.

MOLECULE: CC(Cc1ccccc1)(Oc1ccc(-c2ccc(-c3c(Cc4ccccc4)oc4ccccc34)cc2)cc1)C(=O)O (stereo not drawn)
RESULT_UNIT: nM
IC50: 293
--
MOLECULE: O=C(O)[C@H](Cc1ccccc1)Oc1ccc(-c2ccc(-c3c(Cc4ccccc4)oc4ccccc34)cc2)cc1 [Example 1]
RESULT_UNIT: nM
IC50: 322
--
MOLECULE: CCCCc1sc2ccccc2c1-c1ccc(-c2ccc(OC(Cc3ccccc3)C(=O)O)cc2)cc1 (stereo not drawn)
RESULT_UNIT: nM
IC50: 176
--
MOLECULE: O=C(O)c1ccccc1C(=O)NCC[C@@H](Oc1c(Br)cc(-c2ccc(-c3c(Cc4ccccc4)sc4ccccc34)cc2)cc1Br)C(=O)O
RESULT_UNIT: nM
IC50: 181
--
MOLECULE: O=C(O)[C@H](Oc1ccc(-c2ccc(-c3c(Cc4ccccc4)oc4ccccc34)cc2)cc1)c1ccccc1
RESULT_UNIT: nM
IC50: 401

Exercise: Please look up its IC50: "COc1ccc(-c2cc(-c3ccc(-c4c(Cc5ccccc5)sc5ccccc45)cc3)ccc2OCC(=O)O)cc1"
Solution: 80

Exercise: Same question, "COc1cc(-c2cc(-c3ccc(-c4c(Cc5ccccc5)sc5ccccc45)cc3)ccc2OCC(=O)O)cc(OC)c1OC" this time
Solution: 100

Exercise: Same question, "CCCCc1oc2ccccc2c1-c1ccc(-c2ccc(OCC(=O)O)cc2)cc1" this time
Solution: 2190

Exercise: Same question, "C[C@@H](Oc1ccc(-c2ccc(-c3c(Cc4ccccc4)oc4ccccc34)cc2)cc1)C(=O)O" this time
Solution: 1320

Exercise: Same question, CCCCc1oc2ccccc2c1-c1ccc(-c2ccc(OC(Cc3ccccc3)C(=O)O)cc2)cc1 (stereo not drawn) this time
Solution: 440

Exercise: Same question, "COc1ccc(-c2cc(-c3ccc(-c4c(Cc5ccccc5)oc5ccccc45)cc3)ccc2O[C@@H](Cc2ccccc2)C(=O)O)cc1" this time
Solution: 43

Exercise: Same question, "O=C(O)COc1c(Br)cc(-c2ccc(-c3c(Cc4ccccc4)sc4ccccc34)cc2)cc1Br" this time
Solution: 105

Exercise: Same question, "O=C(O)[C@@H](CCN1C(=O)c2ccccc2C1=O)Oc1ccc(-c2ccc(-c3c(Cc4ccccc4)oc4ccccc34)cc2)cc1" this time
Solution: 341

Exercise: Same question, "O=C(O)COc1ccc(-c2ccc(-c3c(Cc4ccccc4)sc4ccccc34)cc2)cc1Br" this time
Solution: 362

Exercise: Same question, CCCCc1sc2ccccc2c1-c1ccc(-c2ccc(OC(C(=O)O)c3ccccc3)cc2)cc1 (stereo not drawn) this time
Solution: 118

====

# SYSTEM: Human recombinant PTP1B (Homo sapiens, UniProt P18031)
# Construct: made in house
# ASSAY_OVERVIEW: Inhibition of tri-phosphorylated insulin receptor dodecaphosphopeptide dephosphorylation by hPTP1B (malachite green)
# Assay type: biochemical
# EXPERIMENTAL_CONDITIONS: recombinant PTP1B, dodecaphosphopeptide substrate
Structures can show the parent of a compound that is named as a salt.
MEASUREMENT_LABEL: pIC50
Remember the convention: pIC50 equals -log10 of concentration in molar.

MOLECULE: COc1ccc(-c2cc(-c3ccc(-c4c(Cc5ccccc5)sc5ccccc45)cc3)cc(-c3ccc(OC)cc3)c2OCC(=O)O)cc1 [Example 2]
SYSTEM: Human recombinant PTP1B (Homo sapiens, UniProt P18031)
pIC50: 7.60
//
MOLECULE: O=C(O)[C@@H](Cc1ccccc1)Oc1ccc(-c2ccc(-c3c(Cc4ccccn4)sc4ccccc34)cc2)cc1 [Example 32, sodium salt]
SYSTEM: Human recombinant PTP1B (Homo sapiens, UniProt P18031)
pIC50: 5.82

Exercise: Please look up its pIC50: O=C(O)COc1ccc(-c2ccc(-c3c(Cc4ccccc4)sc4ccccc34)cc2)cc1-c1ccccc1 [Example 62]
Solution: 6.98

Exercise: Same question, CCCCCC[C@H](Oc1c(Br)cc(-c2ccc(-c3c(Cc4ccccc4)oc4ccccc34)cc2)cc1Br)C(=O)O [Example 54] this time
Solution: 7.64

Exercise: Same question, O=C(O)[C@H](Cc1ccccc1)Oc1ccc(-c2ccc(-c3c(Cc4ccccc4)oc4ccccc34)cc2)cc1 [Example 16] this time
Solution: 6.40

Exercise: Same question, COc1ccc(Cc2sc3ccccc3c2-c2ccc(-c3ccc(O[C@H](Cc4ccccc4)C(=O)O)cc3)cc2)cc1OC [Example 25] this time
Solution: 6.67

Exercise: Same question, O=C(O)[C@@H](Cc1ccccc1)Oc1ccc(-c2ccc(-c3c(Cc4ccc(F)cc4)sc4ccccc34)cc2)cc1 [Example 19] this time
Solution: 6.91

Exercise: Same question, Oc1c(Br)cc(-c2ccc(-c3c(Cc4ccccc4)sc4ccccc34)cc2)cc1Br [Example 35] this time
Solution: 6.34

Exercise: Same question, O=C(O)[C@H](Cc1ccccc1)Oc1c(Br)cc(-c2ccc(-c3c(Cc4ccccc4)oc4ccccc34)cc2)cc1Br [Example 49] this time
Solution: 7.42

Exercise: Same question, Cc1cc(-c2ccc(-c3c(Cc4ccccc4)oc4ccccc34)cc2)cc(C)c1O[C@H](Cc1ccccc1)C(=O)O [Example 65] this time
Solution: 7.13

Exercise: Same question, O=C(O)[C@@H](Cc1ccccc1)Oc1c(Br)cc(-c2ccc(-c3c(Cc4ccccc4)sc4ccccc34)cc2)cc1Br [Example 37] this time
Solution: 7.60

Exercise: Same question, COC(=O)[C@@H](CCNC(=O)c1ccccc1C(=O)O)Oc1c(Br)cc(-c2ccc(-c3c(Cc4ccccc4)sc4ccccc34)cc2)cc1Br [Example 44] this time
Solution: 7.27
